Recorded values, source patent US20250120961A1.

testTarget: His-tagged p53-Y220C DNA binding domain (Homo sapiens, UniProt P04637, Y220C)
protocolDetails: Biochemical p53-Y220C and DNA binding assay (HTRF)
settings: inflection point of 10 points dose titration, 4 parameter curve fit; p53-Y220C DBD 100 nM, biotinylated dsDNA 200 nM, 27 to 29° C.; read-out: HTRF IP
pEC50: −log10 of the molar value.
# Lookup of reported pEC50 keyed by entry

Example compounds with recorded pEC50:
compound="Cc1oc(=O)oc1CO/N=C/c1sc2c(N[C@@H]3CNC[C@@H]3F)cccc2c1CC(F)(F)F [Example 2-20]" testtarget="His-tagged p53-Y220C DNA binding domain (Homo sapiens, UniProt P04637, Y220C)" reportedendpoint=pEC50 value="6.00 to 7.00"
compound="OCC1(O/N=C/c2sc3c(N[C@@H]4CNC[C@@H]4F)cccc3c2CC(F)(F)F)CCC1 [Example 1-19]" testtarget="His-tagged p53-Y220C DNA binding domain (Homo sapiens, UniProt P04637, Y220C)" reportedendpoint=pEC50 value="6.00 to 7.00"
compound="CS(=O)(=O)NC1CCC(=Cc2sc3c(N[C@@H]4CCNC[C@@H]4F)cccc3c2CC(F)(F)F)CC1 (stereo partly shown) [Example 4-1]" testtarget="His-tagged p53-Y220C DNA binding domain (Homo sapiens, UniProt P04637, Y220C)" reportedendpoint=pEC50 value="< 6.00"

Requested read-out pEC50, target or system His-tagged p53-Y220C DNA binding domain (Homo sapiens, UniProt P04637, Y220C), entry OC1(CO/N=C/c2sc3c(N[C@@H]4CNC[C@@H]4F)cccc3c2CC(F)(F)F)CCNC1 (stereo partly shown) [Example 1-12]
6.00 to 7.00

Another compound to check: CC(O)(CO/N=C/c1sc2c(N[C@@H]3CNC[C@@H]3F)cccc2c1CC(F)(F)F)c1ccccc1 (stereo in doubt) [Example 1-24]
6.00 to 7.00

Repeat for the following compound: CC(C)N1C[C@H](F)[C@H](Nc2cccc3c(CC(F)(F)F)c(/C=N/OCC(C)(C)O)sc23)C1 [Example 2-22]
> 7.00

What do you have for OC1CCCC1O/N=C/c1sc2c(N[C@@H]3CNC[C@@H]3F)cccc2c1CC(F)(F)F (stereo partly shown) [Example 1-17] ?
6.00 to 7.00

====

testTarget: His-tagged p53-Y220C DNA binding domain (Homo sapiens, UniProt P04637, Y220C)
protocolDetails: Biochemical p53-Y220C and DNA binding assay (HTRF)
settings: bound printed in the heading for the reference compound; read-out: HTRF IP
reportedEndpoint: EC50

Return EC50 measured with His-tagged p53-Y220C DNA binding domain (Homo sapiens, UniProt P04637, Y220C) given this compound: CN1CC[C@@H](Nc2cccc3c2cc(-c2noc(CNC(=O)c4cnn(C(C)(C)C)c4)n2)n3CC(F)(F)F)[C@@H](F)C1 [Reference Compound 1, reference compound]
< 100 nM

====

testTarget: His-tagged p53-Y220C DNA binding domain (Homo sapiens, UniProt P04637, Y220C)
protocolDetails: Biochemical p53-Y220C and DNA binding assay (HTRF)
settings: inflection point of 10 points dose titration, 4 parameter curve fit; p53-Y220C DBD 100 nM, biotinylated dsDNA 200 nM, 27 to 29° C.; read-out: HTRF IP
Procedure: Biological Example 1. Biochemical p53-Y220C and DNA Binding Assay The compounds of this invention can bind to p53-Y220C and increase the ability of the mutant p53 to bind to DNA at higher temperatures. […] The plate was read using Envision multimode plate reader. […] 10 points dose titration curves for each compound were analyzed by 4 parameter curve fit and inflection point (IP) was reported. […]
Listed here are molecules together with their documented EC50.

Can you look up EC50 on His-tagged p53-Y220C DNA binding domain (Homo sapiens, UniProt P04637, Y220C) for CN1CC[C@@H](Nc2cccc3c(CC(F)(F)F)c(/C=C/C(O)c4ccncc4)sc23)[C@@H](F)C1 (stereo partly shown) [Example 5-9] ?
100 to 1000 nM

What do you get for CN1CC[C@@H](Nc2cccc3c2cc(/C=N\OCc2ccccc2)n3CC(F)(F)F)[C@@H](F)C1 [Example 2-4] ?
> 1000 nM

Cool, now F[C@H]1CNC[C@H]1Nc1cccc2c(CC(F)(F)F)c(/C=N/OC3CCOC3)sc12 (stereo partly shown) [Example 3-1]
< 100 nM

Also check OC(CO/N=C/c1sc2c(N[C@@H]3CNC[C@@H]3F)cccc2c1CC(F)(F)F)C(F)(F)F (stereo partly shown) [Example 1-5]
100 to 1000 nM
